# subject_of_test: IRAK4 (Homo sapiens, UniProt Q9NWZ3)
# Construct: endogenous in cells; host or cells: THP-1 cells
# Sequence (Q9NWZ3 whole entry): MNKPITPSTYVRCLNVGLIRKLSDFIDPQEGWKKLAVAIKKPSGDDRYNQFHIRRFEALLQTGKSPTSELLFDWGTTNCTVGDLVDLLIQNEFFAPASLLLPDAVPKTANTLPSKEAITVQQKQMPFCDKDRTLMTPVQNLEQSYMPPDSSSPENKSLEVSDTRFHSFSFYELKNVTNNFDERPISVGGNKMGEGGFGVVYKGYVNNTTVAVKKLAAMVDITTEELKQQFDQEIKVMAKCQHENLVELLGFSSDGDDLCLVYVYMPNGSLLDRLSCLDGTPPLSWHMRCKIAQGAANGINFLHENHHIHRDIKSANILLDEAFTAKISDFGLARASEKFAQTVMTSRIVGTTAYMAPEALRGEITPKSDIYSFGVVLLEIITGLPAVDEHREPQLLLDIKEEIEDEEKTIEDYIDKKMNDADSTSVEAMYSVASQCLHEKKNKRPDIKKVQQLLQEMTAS
# method_notes: ALE THP1 HTRF (Advanced Lipoxidation End Product THP1 Homogeneous Time Resolved Fluorescence)
# Type: cell-based
# setup_conditions: THP1 cells
# Procedure: For Homogenous Time Resolved Fluorescence (HTRF) assays, a Cisbio HTRF kit was used, which included: Lysis Buffer #1 4×, Blocking Reagent #3 100×, 20× Antibody 1 (Anti-IRAK4 d2), 20× Antibody 2 (Anti-IRAK4 k), and Detection Buffer. 4× Lysis Buffer was stored at 4° C. […] Cells were lysed at room temperature for 45 min with shaking. […] The samples were analyzed by a plate reader (Envision, PerkinElmer) using the Desnor 384 HTRF program.
Field 'label' (enum: MET / NOT MET). Set to MET when ALE THP1 HTRF YMIN is strictly under 10%; else NOT MET.

compound	answer_label
N#Cc1cnc2c(cnn2-c2cc(NC3CC3)c(C(=O)NC3CCC(CCN4CCN(c5ccc(C6CCC(=O)NC6=O)c(Cl)c5)CC4)CC3)cn2)c1 (stereo not drawn) [P-84]	MET
C[C@H](C#N)Nc1cc(-n2ncc3cc(C#N)cnc32)ncc1C(=O)N[C@H]1CC[C@H](CCN2CCN(c3ccc(C4CCC(=O)NC4=O)cc3)CC2)CC1 (stereo in doubt) [P-128]	NOT MET
O=C1CCC(N2C(=O)c3ccc(N4CCN(C(=O)C5CCC(NC(=O)c6cnc(Nc7ccc8ncoc8c7)cc6NC6CCCC6)CC5)CC4)cc3C2=O)C(=O)N1 (stereo not drawn) [P-12]	NOT MET
CN(CC1CCC(NC(=O)c2cnc(-n3ncc4cc(C#N)cnc43)cc2NC2CCCC2)CC1)C1CCN(c2ccc(C3CCC(=O)NC3=O)cc2)CC1 (stereo not drawn) [P-60]	NOT MET
C[C@@H]1CN(CC[C@H]2CC[C@H](NC(=O)c3cnc(-n4ncc5cc(C#N)cnc54)cc3NC3CC3)CC2)CCN1c1ccc(C2CCC(=O)NC2=O)cc1 (stereo partly drawn) [P-120]	MET
N#Cc1cnc2c(cnn2-c2cc(NC3CC3)c(C(=O)N[C@H]3CC[C@H](CCN4CC5(C4)CN(c4ccc(C6CCC(=O)NC6=O)cc4)C5)CC3)cn2)c1 (stereo partly drawn) [P-124]	NOT MET
